Values were extracted from paper PMC9471048.

# Assay Target: human α2C‐adrenoceptor (Homo sapiens, UniProt P18825)
# Sequence (P18825 whole entry): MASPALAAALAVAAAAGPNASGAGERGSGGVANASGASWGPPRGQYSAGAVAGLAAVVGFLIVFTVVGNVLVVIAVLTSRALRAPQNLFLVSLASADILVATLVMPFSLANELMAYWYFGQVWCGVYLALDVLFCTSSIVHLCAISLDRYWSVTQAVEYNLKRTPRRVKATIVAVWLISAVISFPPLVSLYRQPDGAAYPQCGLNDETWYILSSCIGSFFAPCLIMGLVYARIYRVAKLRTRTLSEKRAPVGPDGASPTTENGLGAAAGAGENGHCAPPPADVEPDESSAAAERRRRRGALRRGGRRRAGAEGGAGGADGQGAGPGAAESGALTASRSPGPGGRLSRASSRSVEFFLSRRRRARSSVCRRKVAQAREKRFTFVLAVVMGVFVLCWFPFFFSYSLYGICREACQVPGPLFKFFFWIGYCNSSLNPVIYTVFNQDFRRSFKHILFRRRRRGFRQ
# Test Name: 3H‐rauwolscine whole cell binding in CHO‐α2C cells
# Set-up: expressed in transfected cells; host or cells: CHO-K1 with CRE-SPAP reporter
# Settings: Log KD
Readout Name: Kd (µM)
One number for each entry, in µM.

What Kd appears in the records for this molecule with human α2C‐adrenoceptor (Homo sapiens, UniProt P18825)? CC(Cc1ccc(O)cc1)NCC(O)c1cc(O)cc(O)c1 (stereo not shown) [Fenoterol] 151

----------
I'd be grateful if you could share measured % 10 μM PDBu, ERK1/2‐phosphorylation for these entries.
# Assay Target: human α2C‐adrenoceptor (Homo sapiens, UniProt P18825)
# Test Name: ERK1/2‐phosphorylation in CHO‐α2C cells
# Format: cell-based
# Parameters: expressed in transfected cells; host or cells: CHO-K1 with CRE-SPAP reporter
# Settings: CHO‐α2C cells, maximum response compared to 10 μM PDBu, mean ± SEM
Numbers only, in %.

Recorded results for 3 compounds are shown here.
{"columns": ["Compound", "Assay Target", "% 10 μM PDBu, ERK1/2‐phosphorylation [%]"],
 "data": [
  ["NCC(O)c1ccc(O)cc1 (stereo not shown)", "human α2C‐adrenoceptor (Homo sapiens, UniProt P18825)", 153.8],
  ["c1ccc2c(c1)CCCC2C1=NCCN1 (stereo not shown) [Tetrahydrozoline]", "human α2C‐adrenoceptor (Homo sapiens, UniProt P18825)", 139.6],
  ["CCN1CCc2nc(N)oc2CC1", "human α2C‐adrenoceptor (Homo sapiens, UniProt P18825)", 150.0]
]}

Continue with the compound presented below.
Reported % 10 μM PDBu, ERK1/2‐phosphorylation for `NC[C@H](O)c1ccc(O)c(O)c1` : what is it? 142.3
